B1: LMNB1 (parent)
chain: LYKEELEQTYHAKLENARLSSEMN

variants of: B1; experiment: protein stability index of a GFP-peptide fusion (GPS, HEK-293T) (PSI 1-6); higher = more stable; settings: c terminus: a fixed tail appended;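 note: lentivirally expressed fusions sorted by FACS into six bins by GFP to DsRed ratio, PSI derived from sequencing read proportions per bin multiplied by bin number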

| VARIANT_STRING | protein stability index |
| --- | --- |
| E15Y | 2.47 |
| T9I | 2.6 |
| M23V | 2.46 |
| N16M | 3.03 |
| L6V | 4.34 |
| K13Y | 1.84 |
| H11K | 2.4 |
| K13N | 3.35 |
| L1S | 2.9 |
| L14A | 4.49 |
| L19N | 3.76 |
| A17R | 3.71 |
| N24H | 3.28 |
| E22S | 3.44 |
| Y2M | 2.31 |
| E7R | 3.44 |
| T9C | 3.12 |
| Y10F | 3.67 |
| R18K | 3.31 |
| S21F | 2.42 |
| A12W | 2.65 |
| R18L | 2.81 |
| S21D | 3.48 |
| N16G | 2.27 |
| H11N | 3.14 |
| L14V | 3.49 |
| E5T | 1.83 |
| L14D | 4.74 |
| T9F | 2.57 |
| R18F | 2.17 |
| S21Y | 2.1 |
| A17T | 2.61 |
| E15R | 2.76 |
